Tested on: corn
test_method_notes: Test B pre-/postemergence herbicide test
Assay type: in vivo, Zea mays
condition_set: 125 g ai/ha; visual rating, scale 0 (no effect) to 100 (complete control); postemergence
metric_name: Corn plant response rating

>  <compound>
CCc1nn(C(C)(C)C)nc1C(=O)Nc1cccc(C(=O)N(C)C)c1

>  <study_target>
corn

>  <endpoint_value>
10

$$$$
>  <compound>
CCNC(=O)c1cccc(NC(=O)c2nn(C3CCCC3)nc2CC)c1

>  <study_target>
corn

>  <endpoint_value>
0

$$$$
>  <compound>
C=CCNC(=O)c1cccc(NC(=O)c2nn(C(C)C)nc2CC)c1

>  <study_target>
corn

>  <endpoint_value>
0

$$$$
>  <compound>
C#CCNC(=O)c1cncc(NC(=O)c2cc(C(C)(C)C)nn2CC)n1

>  <study_target>
corn

>  <endpoint_value>
0

$$$$
>  <compound>
CCN(CC)C(=O)c1cccc(NC(=O)c2cc(C(C)(C)C)nn2C)n1

>  <study_target>
corn

>  <endpoint_value>
10

$$$$
>  <compound>
CCc1nn(C(C)C)nc1C(=O)Nc1cccc(C(=O)N2CCCCC2)c1

>  <study_target>
corn

>  <endpoint_value>
10

$$$$
>  <compound>
Cn1nc(C(C)(C)C)cc1C(=O)Nc1cccc(C(=O)NC2CC2)n1

>  <study_target>
corn

>  <endpoint_value>
10

$$$$
>  <compound>
CCN(CC)C(=O)c1ccc(F)c(NC(=O)C2CC(C(C)(C)C)=NN2CC)c1 (racemic)

>  <study_target>
corn

>  <endpoint_value>
0

$$$$
>  <compound>
CCN1N=C(C(C)(C)C)CC1C(=O)Nc1cc(C(=O)N2CC=CC2)ccc1F (racemic)

>  <study_target>
corn

>  <endpoint_value>
0

$$$$
>  <compound>
CCn1nc(C(C)(C)C)cc1C(=O)Nc1cc(OC(F)(F)F)ccc1F

>  <study_target>
corn

>  <endpoint_value>
10

$$$$
>  <compound>
CCc1nn(C(C)(C)CC)nc1C(=O)Nc1cc(C(=O)N2CC=CC2)ccc1F

>  <study_target>
corn

>  <endpoint_value>
10

$$$$

* * *

Tested on: wild oat
test_method_notes: Test B postemergence herbicide test
Type: in vivo, Avena fatua
condition_set: postemergence, 125 g ai/ha; visual rating, scale 0 (no effect) to 100 (complete control)
metric_name: Oat, Wild plant response rating

>  <test_smiles>
CCc1nn(C(C)(C)C)cc1C(=O)Nc1cccc(C(C)=O)c1

>  <metric_name>
Oat, Wild plant response rating

>  <endpoint_value>
10

$$$$
>  <test_smiles>
CCc1nc(C(C)(C)C)sc1C(=O)Nc1cccc(C(=O)N(CC)CC)c1

>  <metric_name>
Oat, Wild plant response rating

>  <endpoint_value>
20

$$$$
>  <test_smiles>
CCCn1nc(C(C)(C)C)cc1C(=O)Nc1cccc(C(C)=NO)c1

>  <metric_name>
Oat, Wild plant response rating

>  <endpoint_value>
40

$$$$
>  <test_smiles>
CCn1nc(C(C)(C)C)cc1C(=O)Nc1cccc(C(=O)NCC2CC2)c1

>  <metric_name>
Oat, Wild plant response rating

>  <endpoint_value>
10

$$$$
>  <test_smiles>
CCn1nc(C(C)(C)C)cc1C(=O)Nc1cc(C(=O)OC(C)(C)C)ccc1F

>  <metric_name>
Oat, Wild plant response rating

>  <endpoint_value>
0

$$$$
>  <test_smiles>
CC(=O)c1cccc(NC(=O)c2cc(C(C)(C)C)nn2CC(F)(F)F)c1

>  <metric_name>
Oat, Wild plant response rating

>  <endpoint_value>
30

$$$$
>  <test_smiles>
CCN(C)C(=O)c1ccc(F)c(NC(=O)c2cc(C(C)(C)C)nn2CC)n1

>  <metric_name>
Oat, Wild plant response rating

>  <endpoint_value>
10

$$$$
>  <test_smiles>
CC(=O)c1cccc(NC(=O)c2sc(C(C)(C)C)nc2C)c1

>  <metric_name>
Oat, Wild plant response rating

>  <endpoint_value>
0

$$$$
>  <test_smiles>
CCNC(=O)c1ccc(F)c(NC(=O)c2cn(C(C)(C)C)nc2CC)c1

>  <metric_name>
Oat, Wild plant response rating

>  <endpoint_value>
0

$$$$
